Assay: in vivo
Details: Sprague-Dawley, rat, plasma, po, 3 mg/kg
Description: Drug concentration in plasma of Sprague-Dawley rat at 3 mg/kg, po measured after 1 hr by LC-MS/MS analysis
Readout label: concentration at 1 h
I'd appreciate it if you wrote the number followed by its unit.

input: Look up concentration at 1 h for this compound: COc1ccccc1[C@H](Cn1c(=O)n([C@H]2C[C@@](C)(C(=O)O)C2)c(=O)c2c(C)c(-c3ncco3)sc21)OC1CCOCC1
output: 56.8 ng/mL

* * *

Provide the recorded MRT last for the entries that follow.
Assay: MRT (0 to t) in Sprague-Dawley rat at 1 mg/kg, iv measured for 0.25 to 24 hrs by LC-MS/MS analysis
Format: ADME, organism-based
Settings: in vivo, time 0.25-24 hrs
Return type: number; implicit unit min.

input: Look up MRT last for this compound: COc1ccccc1[C@H](Cn1c(=O)n([C@H]2C[C@@H](C(=O)O)C2)c(=O)c2c(C)c(-c3ncco3)sc21)OC1CCOCC1
output: 6

input: Look up MRT last for this compound: COc1ccccc1[C@H](Cn1c(=O)n([C@H]2C[C@@](C)(C(=O)O)C2)c(=O)c2c(C)c(-c3ncco3)sc21)OC1CCOCC1
output: 18

input: Look up MRT last for this compound: COc1ccccc1[C@H](Cn1c(=O)n(C(C)(C)C(=O)O)c(=O)c2c(C)c(-c3ncco3)sc21)OC1CCOCC1 [FIRSOCOSTAT]
output: 102
